tested on: UCD52 (cells of a triple-negative basal-like breast cancer xenograft); test: cell viability (% of vehicle); higher = less cytotoxic; conditions: 10 µM; 72 h
Measured cell viability values are reported for all entries that follow.
Answer with the value's number alone.

| compound | cell viability |
| --- | --- |
| C1CNCCN1.C[C@@]12CC[C@H]3c4ccc(OS(=O)(=O)O)cc4CC[C@H]3[C@H]1CCC2=O [Estropipate] | 104 |
| O=C(CCCN1CC=C(n2c(=O)[nH]c3ccccc32)CC1)c1ccc(F)cc1 | 93.1 |
| CC(CN1CC(=O)NC(=O)C1)N1CC(=O)NC(=O)C1.Cl (centres undefined) [Dexrazoxane HCl (ICRF-187, ADR-529)] | 96.1 |

Moving on to the next compound.
I have this compound here, Cc1cc(=O)n(-c2ccccc2)n1C [Antipyrine] , and I need its recorded cell viability.
98.2

----------
tested on: UCD52; assay: cell viability (% of vehicle); higher = less cytotoxic; details: 10 µM; 72 h
Class (by cell viability) -- group A (below 80), group B (80 to below 100), group C (100 or more)

Consider the worked cases shown below.
| molecule | class-label |
| --- | --- |
| CCCCCCCCCCCCCCCCOP(=O)([O-])OCC[N+](C)(C)C | group A |
| CC(COc1ccccc1)N(CCCl)Cc1ccccc1.Cl (stereo unspecified) [Phenoxybenzamine HCl] | group C |
| CS(=O)(=O)O.Cc1ccc(NC(=O)c2ccc(CN3CCN(C)CC3)cc2)cc1Nc1nccc(-c2cccnc2)n1 [Imatinib Mesylate (STI571)] | group A |
| CCN(CCO)CCCOc1ccc2c(Nc3cc(CC(=O)Nc4cccc(F)c4)[nH]n3)ncnc2c1 | group C |
| COc1cc2nc(N(C)CCCNC(=O)C3CCCO3)nc(N)c2cc1OC.Cl (stereo unspecified) [Alfuzosin HCl] | group B |

Next up:
Sort CCNC1CC(C)S(=O)(=O)c2sc(S(N)(=O)=O)cc21.Cl (stereo unspecified) [Dorzolamide HCl] into one of the categories.
group A

----------
system: UCD52; assay: cell viability (% of vehicle); higher = less cytotoxic; conditions: 10 µM; 72 h
Response field label takes yes (1) when cell viability is strictly below 80 and no (0) in all other cases.

| molecule | class-label |
| --- | --- |
| NCC1OC(OC2C(N)CC(N)C(OC3OC(CO)C(O)C(N)C3O)C2O)C(N)CC1O (stereo unspecified) [Tobramycin] | no (0) |

Next up:
cell viability strictly < 80 for this molecule? CC(C)c1c(C(=O)Nc2ccccc2)c(-c2ccccc2)c(-c2ccc(F)cc2)n1CCC(O)CC(O)CC(=O)[O-].CC(C)c1c(C(=O)Nc2ccccc2)c(-c2ccccc2)c(-c2ccc(F)cc2)n1CCC(O)CC(O)CC(=O)[O-].[Ca+2] (stereo unspecified) [Atorvastatin Calcium]
yes (1)

----------
tested on: UCD52; experiment: cell viability (% of vehicle); higher = less cytotoxic; conditions: 10 µM; 72 h
Measured cell viability values are reported for all entries that follow.
Answer with the value's number alone.

Please review the following examples before continuing.
| compound | measured-on | value-type | reading |
| --- | --- | --- | --- |
| CC(=O)OCC[N+](C)(C)C.[Cl-] [Acetylcholine Chloride] | UCD52 | cell viability | 69.3 |
| Clc1ccc(C(c2ccccc2Cl)C(Cl)Cl)cc1 (stereo not drawn) [Mitotane (Lsodren)] | UCD52 | cell viability | 97.9 |
| Cc1cc(C(C)(C)C)cc(C)c1CC1=NCCN1.Cl [Xylometazoline HCl] | UCD52 | cell viability | 83.9 |

API: value(readout=cell viability, system=UCD52) for record COc1ccc(-c2ccc3cc(C(=O)O)ccc3c2)cc1C12CC3CC(CC(C3)C1)C2 [Adapalene]
179

API: value(readout=cell viability, system=UCD52) for record NS(=O)(=O)c1cc2c(cc1Cl)NCNS2(=O)=O [Hydrochlorothiazide]
105

API: value(readout=cell viability, system=UCD52) for record COc1ccccc1OCCNCC(O)COc1cccc2[nH]c3ccccc3c12 (stereo not drawn) [Carvedilol]
44

API: value(readout=cell viability, system=UCD52) for record C=CC(=O)Nc1cc(Nc2nccc(-c3cn(C)c4ccccc34)n2)c(OC)cc1N(C)CCN(C)C
30.1

API: value(readout=cell viability, system=UCD52) for record CSc1nc2cc(Oc3cccc(Cl)c3Cl)c(Cl)cc2[nH]1 [Triclabendazole]
89.2

----------
test system: HCI01 (cells of a triple-negative basal-like breast cancer xenograft); assay: cell viability (% of vehicle); higher = less cytotoxic; details: 10 µM; 72 h
Response field label takes yes when cell viability is strictly below 90 and no in all other cases.

Consider the worked cases shown below.
| compound | measured-on | class-label |
| --- | --- | --- |
| CO[C@H]1C[C@@H]2CC[C@@H](C)[C@@](O)(O2)C(=O)C(=O)N2CCCC[C@H]2C(=O)O[C@H]([C@H](C)C[C@@H]2CC[C@@H](OC(=O)C(C)(CO)CO)[C@H](OC)C2)CC(=O)[C@H](C)/C=C(\C)[C@@H](O)[C@@H](OC)C(=O)[C@H](C)C[C@H](C)/C=C/C=C/C=C/1C | HCI01 | yes |
| Cc1[nH]c(C=C2C(=O)Nc3ccccc32)c(C)c1CCC(=O)O [TSU-68 (SU6668,Orantinib)] | HCI01 | yes |
| O=c1[nH]c(=O)n(C2CC(O)C(CO)O2)cc1F (stereo unspecified) | HCI01 | no |
| CCC(CO)Nc1nc(NCc2ccccc2)c2ncn(C(C)C)c2n1 (stereo unspecified) [Roscovitine (Seliciclib,CYC202)] | HCI01 | yes |

cell viability strictly < 90 for this compound? CCOc1ccc2ccccc2c1C(=O)NC1C(=O)N2C1SC(C)(C)C2C(=O)[O-].O.[Na+] (stereo unspecified) [Nafcillin Sodium]
no

----------
Measured cell viability of combination values are reported for all entries that follow.
system: WHIM30 (cells of a triple-negative basal-like breast cancer xenograft); test: cell viability of combination (% of vehicle); higher = less cytotoxic; conditions: 1 µM; 72 h; partner dose: 10 nM
Answer with the value's number alone.

| compound | cell viability of combination |
| --- | --- |
| COc1cccc2c1C(=O)c1c(O)c3c(c(O)c1C2=O)CC(O)(C(=O)CO)CC3OC1CC(N)C(O)C(C)O1 (centres undefined) [Doxorubicin] + CC(C)C[C@H](NC(=O)[C@H](CCc1ccccc1)NC(=O)CN1CCOCC1)C(=O)N[C@@H](Cc1ccccc1)C(=O)N[C@@H](CC(C)C)C(=O)[C@@]1(C)CO1 [Carfilzomib] | 8.32 |
| CC[C@@]1(O)C(=O)OCc2c1cc1n(c2=O)Cc2cc3c(CN(C)C)c(O)ccc3nc2-1 [Topotecan] + CC(C)C[C@H](NC(=O)[C@H](CCc1ccccc1)NC(=O)CN1CCOCC1)C(=O)N[C@@H](Cc1ccccc1)C(=O)N[C@@H](CC(C)C)C(=O)[C@@]1(C)CO1 [Carfilzomib] | 7.16 |
| CCCCCCCCCCCCCCCCOP(=O)([O-])OCC[N+](C)(C)C [Miltefosine] + CC(C)C[C@H](NC(=O)[C@H](CCc1ccccc1)NC(=O)CN1CCOCC1)C(=O)N[C@@H](Cc1ccccc1)C(=O)N[C@@H](CC(C)C)C(=O)[C@@]1(C)CO1 [Carfilzomib] | 22.7 |

Moving on to the next compound.
I have this compound here, CC(C)N=c1cc2n(-c3ccc(Cl)cc3)c3ccccc3nc-2cc1Nc1ccc(Cl)cc1 [Clofazimine] + CC(C)C[C@H](NC(=O)[C@H](CCc1ccccc1)NC(=O)CN1CCOCC1)C(=O)N[C@@H](Cc1ccccc1)C(=O)N[C@@H](CC(C)C)C(=O)[C@@]1(C)CO1 [Carfilzomib] , and I need its recorded cell viability of combination.
16.7

----------
Measured cell viability values are reported for all entries that follow.
test system: UCD52; experiment: cell viability (% of vehicle); higher = less cytotoxic; settings: 10 µM; 72 h
Answer with the value's number alone.

Please review the following examples before continuing.
| compound | cell viability |
| --- | --- |
| COc1ccc(C(=O)CC(=O)c2ccc(C(C)(C)C)cc2)cc1 [Avobenzone] | 71 |
| CO[C@@]12[C@H](COC(N)=O)C3=C(C(=O)C(C)=C(N)C3=O)N1C[C@@H]1N[C@@H]12 [Mitomycin C] | 32.3 |
| CC(C)(Oc1ccc(C2CC2(Cl)Cl)cc1)C(=O)O (centres undefined) [Ciprofibrate] | 96.2 |

Moving on to the next compound.
API: value(readout=cell viability, system=UCD52) for record COC(=O)Nc1nc2ccc(S(=O)c3ccccc3)cc2[nH]1 (centres undefined) [Oxfendazole]
95.3

----------
test system: HCI09 (cells of a triple-negative luminal androgen receptor type breast cancer xenograft); assay: cell viability (% of vehicle); higher = less cytotoxic; details: 10 µM; 72 h
Measured cell viability values are reported for all entries that follow.
Answer with the value's number alone.

Please review the following examples before continuing.
| molecule | cell viability |
| --- | --- |
| CO/C(O)=N/[C@H](C(=O)N1CC2(CC2)C[C@H]1c1ncc(-c2ccc3c(c2)C(F)(F)c2cc(-c4ccc5nc([C@@H]6[C@H]7CC[C@H](C7)N6C(=O)[C@@H](/N=C(\O)OC)C(C)C)[nH]c5c4)ccc2-3)[nH]1)C(C)C | 55.6 |
| CCCCC(=O)OC1(C(=O)CO)C(C)CC2C3CCC4=CC(=O)C=CC4(C)C3(F)C(O)CC21C (centres undefined) [Betamethasone Valerate] | 148 |
| CC(C)CC(NC(=O)C(CCc1ccccc1)NC(=O)CN1CCOCC1)C(=O)NC(Cc1ccccc1)C(=O)NC(CC(C)C)C(=O)C1(C)CO1 (centres undefined) | 25.7 |

Moving on to the next molecule.
I have this molecule here, CCOc1nc2cccc(C(=O)O)c2n1Cc1ccc(-c2ccccc2-c2nc(=O)o[nH]2)cc1 , and I need its recorded cell viability.
84.8

Origin of measurements: the supplement of paper PMC6992640
